The measured values listed here are drawn from ChEMBL document CHEMBL4330134.

Test system: Mycobacterium tuberculosis
Test: Antimycobacterial activity against Mycobacterium tuberculosis H37Rv ATCC 27294 after 4 days by microplate Alamar blue assay
Assay type: functional
Conditions: H37Rv ATCC 27294, 96 h
Each entry below lists one item and its recorded MIC value.
endpoint: MIC (µg/mL)

1. CN(C)C(=O)/C=C/C(=O)c1ccccc1[N+](=O)[O-] = 1.51
2. CCCN(CCC)C(=O)/C=C/C(=O)c1ccc(OCC)cc1 = 1.91
3. COc1ccc(C(=O)/C=C/C(=O)N(C)C)cc1 = 0.38
4. COC(=O)/C=C/C(=O)c1ccc2c(c1)OCO2 = 0.38
5. CCOc1ccc(C(=O)/C=C/C(=O)OCCNC(=O)OC(C)(C)C)cc1 = 1.45
6. CCN(C)C(=O)/C=C/C(=O)c1ccccc1Cl = 0.65
7. Cc1ccc(C(=O)/C=C/C(=O)OC(C)C)cc1 = 0.77
8. COC(=O)/C=C/C(=O)c1ccc([N+](=O)[O-])cc1 = 0.54
9. CCN(C)C(=O)/C=C/C(=O)c1ccc(-c2ccccc2)cc1 = 0.49
10. CC(C)OC(=O)/C=C/C(=O)c1ccc(Br)cc1 = 0.41
